Let's go through some pIC50 measurements on human 5-HT2A receptor (Homo sapiens) together.
Sequence (P28223 whole entry): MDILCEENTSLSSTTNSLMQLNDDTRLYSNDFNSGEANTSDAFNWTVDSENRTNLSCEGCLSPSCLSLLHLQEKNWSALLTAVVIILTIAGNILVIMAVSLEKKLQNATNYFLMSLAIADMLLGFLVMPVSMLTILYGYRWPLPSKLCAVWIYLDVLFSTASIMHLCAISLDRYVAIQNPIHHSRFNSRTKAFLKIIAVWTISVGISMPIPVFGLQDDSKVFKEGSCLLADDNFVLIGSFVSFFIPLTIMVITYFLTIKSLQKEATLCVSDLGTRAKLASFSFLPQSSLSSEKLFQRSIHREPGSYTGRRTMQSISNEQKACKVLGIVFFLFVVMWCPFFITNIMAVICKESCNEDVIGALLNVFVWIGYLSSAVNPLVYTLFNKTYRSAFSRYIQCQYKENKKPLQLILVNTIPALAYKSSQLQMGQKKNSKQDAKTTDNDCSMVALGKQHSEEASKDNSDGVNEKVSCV
FYI, pIC50 means -log10 of a concentration in mol per litre.

Test system human 5-HT2A receptor (Homo sapiens); read-out pIC50; what value for `[2H]C([2H])(c1c[nH]c2cccc(OC(=O)CCCC(=O)Oc3cccc4[nH]cc(C([2H])([2H])[C@H]5CCCN5C([2H])([2H])[2H])c34)c12)[C@H]1CCCN1C([2H])([2H])[2H]` ? 7.35

Observed pIC50 on human 5-HT2A receptor (Homo sapiens) for `CN(C)CCc1c[nH]c2cccc(OP(=O)(O)O)c12` , please. 5.37

// fetch human 5-HT2A receptor (Homo sapiens) pIC50 for `[2H]C([2H])(c1c[nH]c2cccc(O)c12)[C@H]1CCCN1C([2H])([2H])[2H]` 6.66

---
Observed pIC50 on human 5-HT2A receptor (Homo sapiens) for `CN1CCC[C@@H]1Cc1c[nH]c2cccc(O)c12` , please. 6.66

Can you look up pIC50 on human 5-HT2A receptor (Homo sapiens) for `CN1CCC[C@@H]1Cc1c[nH]c2cccc(OC(=O)CCCC(=O)Oc3cccc4[nH]cc(C[C@H]5CCCN5C)c34)c12` ? 7.43

The measurements presented in this section are drawn from patent US20260274876A1.
